Target: T1, human CD14 antigen (B294801, histidine tagged) (Homo sapiens, UniProt P08571)
T1 construct: His; purchased Shanghai BaiYing Biotechnology Co., Ltd B294801 (Batch number 20200518A22)
T1 sequence (P08571 20-345): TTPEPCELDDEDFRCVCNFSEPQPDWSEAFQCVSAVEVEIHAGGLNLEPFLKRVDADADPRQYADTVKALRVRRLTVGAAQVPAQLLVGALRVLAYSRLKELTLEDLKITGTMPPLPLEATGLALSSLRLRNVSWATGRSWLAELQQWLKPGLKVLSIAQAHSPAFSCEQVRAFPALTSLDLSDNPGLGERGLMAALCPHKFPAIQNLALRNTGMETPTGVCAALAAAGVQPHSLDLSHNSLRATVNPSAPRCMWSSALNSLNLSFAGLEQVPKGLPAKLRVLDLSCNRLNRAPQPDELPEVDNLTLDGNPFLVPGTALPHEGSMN
Test: Biacore 8K kinetic and affinity test of antibodies without PTM sites (Example 9)
Format: binding
Conditions: Biacore 8K, analyte B294801 0.1953125-25 nM, capture conc. 1 μg/mL
OBSERVED_PROPERTY: kon (1:1 binding)
# output: numeric value plus its unit

Q) Can you look up the measured kon (1:1 binding) of MPDDAD003: D6DD3D014-derived antibody with PTM site removed; VL amino acid nos. 34, 35: TS (antibody, V domains shown) VH: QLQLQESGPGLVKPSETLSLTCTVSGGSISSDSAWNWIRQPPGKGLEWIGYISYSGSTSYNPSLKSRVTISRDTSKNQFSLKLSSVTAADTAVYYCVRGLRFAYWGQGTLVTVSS VL: DIQLTQSPSSLSASVGDRVTITCRASESVDSYVTSFLHWYQQKPGKAPKLLIYRASNLQSGVPSRFSGSGSRTDFTLTISSLQPEDVATYYCQQSNEDPYTFGQGTKLEIK for me?
A) 1.29e+06 M⁻¹ s⁻¹

Hey, just so you know, these numbers are from patent US20250011456A1.
